compound	melting point
COc1nc(-c2ccc(OC(C)C)cc2)sc1C(=O)O	109 to 110 °C
CON=C(C)C(=NOCc1ccccc1)C(=O)O	88 to 89 °C
O=C(O)C(=O)c1ccc(OCCCNC(=O)c2ccc3ccccc3c2)cc1	169 to 170 °C
COc1cc(C(=O)O)ccc1OCc1cccc(OCc2ccc3ccccc3n2)c1	188 to 190 °C
O=C(CCCN1CCC(NC(=O)c2ccccc2)CC1)c1ccc(F)cc1	161 to 162 °C
N#Cc1cc([N+](=O)[O-])cc(C#N)c1O	228 to 231 °C
CC(C)OCc1c(S(C)(=O)=O)ccc(Br)c1Cl	87 to 91 °C
CCCCCCCCCCCCCCCCCC[PH](=O)C(OCC)OCC (stereo unspecified)	54 to 58 °C
BrCCC=C1c2ccccc2C=Cc2ccccc21	88 to 89 °C
OC(CCn1ccnc1)(c1ccccc1)c1ccc2sc3ccccc3c2c1 (stereo unspecified)	88 to 91 °C
O=C1CC(C(O)(c2ccc(F)cc2)c2ccc(F)cc2)CN1Cc1ccccc1 (stereo unspecified)	158 to 160 °C
NC(=O)CSC(c1ccccc1)c1ccccc1	104 to 110 °C
CCC(C)C[C@@H]1O[C@H](CC(=O)Nc2cccc(OC(F)(F)C(=O)O)c2)C(=O)N(CC(C)(C)CO)c2ccc(Cl)cc21 (stereo partly specified)	119 to 121 °C
CCCCOc1cc(C(=O)O)cc(S(N)(=O)=O)c1Cc1ccccc1	228 to 229 °C
OC(c1cc(F)cc(F)c1)c1cc(F)cc(F)c1	62 °C
O=C(NC1CCN(Cc2ccccc2)CC1)c1cccc(OCc2ccc3ccccc3n2)c1	60 to 62 °C
CCc1cccc(C)c1CNc1cc(Cl)nc(Cl)c1[N+](=O)[O-]	118 to 121 °C
CC(C)(C)OC(=O)NC(Cc1c[nH]c2ccccc12)C(=O)C=Cc1cc(C(F)(F)F)cc(C(F)(F)F)c1 (stereo unspecified)	137 to 138 °C
Oc1ncncc1Oc1ccccc1	186 to 188 °C
COc1cc2ncnc(N3CCN(C(=O)NCc4ccc(F)cc4)CC3)c2cc1OC	200 to 201 °C
COC(=O)C(Oc1cc(OCc2ccnnc2)ccc1C#N)c1ccccc1Cl (racemic)	136 to 138 °C
CCCOC(=O)N(C)SN(C(=O)NC(=O)c1c(F)cccc1F)c1ccc(Oc2ccc(C(F)(F)F)cc2Cl)cc1F	98 to 99 °C
NC1=NC(c2ccc(OC(F)(F)F)cc2)(c2ccc(F)c(-c3cncnc3)c2)C(=O)N1C(F)F (stereo unspecified)	82 to 94 °C
COc1ccc(CC2=NC(C)(C)CO2)cc1NC(=O)C(C)(C)CCCOc1cc(C)ccc1C	79 to 80 °C
CC(=O)Nc1ccc(OCC2CO2)c(-c2nnco2)c1 (stereo unspecified)	173 to 175 °C
CN(C)CCN(C)C(=O)Oc1ccc(Cl)cc1Cn1nc(-c2ccc(C(F)(F)F)cc2)oc1=O	127 to 129 °C
CCOC(=O)CCCOc1cccc2c1SCCC2	31 °C
Oc1cc(C(F)(F)F)nc2cc(C(F)(F)F)ccc12	184 to 185 °C
CC(C)Cn1c(CNC(=O)OC(C)(C)C)c(-c2ccccc2)c2cc(O)ccc2c1=O	218 to 219 °C
CC(C)NC(=O)C1=C(C(=O)Nc2cc(OC3CCCC3)c(Cl)cc2F)CCCC1	169 to 171 °C
CCOc1cc(NC(C)=O)c([N+](=O)[O-])cc1C(=O)OC	110 °C
CC(=O)N1CCc2cc(S(=O)(=O)n3c(CCC(=O)O)cc4cc(Cl)ccc43)ccc21	220 to 223 °C
Cc1c(SCCCSCC2CN(C)C(=O)O2)ccnc1CNc1cnc2ccccc2c1 (stereo unspecified)	98 to 100 °C
CN1C(=O)N(c2ccc(Cl)cc2)S[N+]1(C)[O-] (stereo unspecified)	83 to 85 °C
CC(=O)NC[C@H]1CN(c2ccc(N3CCC(=C(C#N)n4ccnc4)CC3)c(F)c2)C(=O)O1	196 to 198 °C
Cc1ccc2nccc(Cl)c2c1	47 to 51 °C
CNC(=O)ON=C1SCS(=O)CS1 (stereo unspecified)	175 to 177 °C
COc1ccc(C=O)cc1CN1C(=O)c2ccccc2C1=O	109 to 111 °C
N#CCCCC(N)=NO	99.5 to 101 °C
COc1ccc(OC)c2nccnc12	145 to 150 °C
C=Cc1ccc(-c2cc(NC(=O)C3Cc4ccccc4C3)n[nH]2)cc1	193 to 195 °C

The values you see were collected from a melting point compilation (Tetko et al.; mined from patent text by program, amines drawn as free bases though some values may be those of a salt).
